- TGT: GSTT2B Glutathione S-transferase theta-2B (Homo sapiens, UniProt P0CG30)
- Construct: isoTOP-ABPP experiments performed in cell lysates (in vitro); endogenous in cells; host or cells: MDA-MB-231 soluble lysate
- Sequence (P0CG30 whole entry): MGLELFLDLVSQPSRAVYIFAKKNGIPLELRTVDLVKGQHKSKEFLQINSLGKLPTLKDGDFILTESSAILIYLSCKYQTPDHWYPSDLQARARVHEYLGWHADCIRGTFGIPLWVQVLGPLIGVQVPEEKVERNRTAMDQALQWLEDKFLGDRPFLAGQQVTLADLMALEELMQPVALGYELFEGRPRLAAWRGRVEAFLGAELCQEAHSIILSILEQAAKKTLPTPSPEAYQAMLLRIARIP
- TEST_METHOD_NOTES: competitive isoTOP-ABPP
- Type: binding
- RUN_PARAMETERS: 50 uM, 231 sol, in vitro
Task for the reader: assign each of the following compounds its reported isoTOP-ABPP reactivity ratio at lysine P0CG30_K53.

isoTOP-ABPP reactivity ratio at lysine P0CG30_K53 reading for O=C(CCc1cn(-c2ccccc2)nc1-c1ccccc1)Oc1ccc([N+](=O)[O-])cc1[N+](=O)[O-] [fragment 29] : 0.7

isoTOP-ABPP reactivity ratio at lysine P0CG30_K53 reading for O=C(CN1C(=O)c2ccccc2C1=O)Oc1c(F)c(F)c(F)c(F)c1F [fragment 27] : 0.9

isoTOP-ABPP reactivity ratio at lysine P0CG30_K53 reading for COc1cc(CCC(=O)Oc2ccc([N+](=O)[O-])cc2[N+](=O)[O-])cc(OC)c1OC [fragment 33] : 0.5

isoTOP-ABPP reactivity ratio at lysine P0CG30_K53 reading for O=C(Oc1c(F)c(F)c(F)c(F)c1F)C1CCN(C(=O)OCc2ccccc2)CC1 [fragment 24] : 1.0

====

- TGT: ABCE1 ATP-binding cassette sub-family E member 1 (Homo sapiens, UniProt P61221)
- Construct: isoTOP-ABPP experiments performed in cell lysates (in vitro); endogenous in cells; host or cells: soluble proteome of human cancer cell lines (MDA-MB-231, Ramos, Jurkat)
- TEST_METHOD_NOTES: competitive isoTOP-ABPP
- RUN_PARAMETERS: 50 uM, 231 sol, in vitro
PARAMETER_MEASURED: isoTOP-ABPP reactivity ratio at lysine P61221_K191
Answer with a bare number; do not write a unit.

isoTOP-ABPP reactivity ratio at lysine P61221_K191 reading for COc1cc(CCC(=O)Oc2ccc([N+](=O)[O-])cc2[N+](=O)[O-])cc(OC)c1OC : 1.1

isoTOP-ABPP reactivity ratio at lysine P61221_K191 reading for O=C(Oc1ccc([N+](=O)[O-])cc1[N+](=O)[O-])c1cc(C(F)(F)F)cc(C(F)(F)F)c1 : 1.4

isoTOP-ABPP reactivity ratio at lysine P61221_K191 reading for Cn1cc(CC(=O)Oc2ccc([N+](=O)[O-])cc2[N+](=O)[O-])c2ccccc21 : 1.3

isoTOP-ABPP reactivity ratio at lysine P61221_K191 reading for O=C(Oc1c(F)c(F)c(F)c(F)c1F)c1ccc2ccccc2n1 : 1.7

isoTOP-ABPP reactivity ratio at lysine P61221_K191 reading for O=C(CCc1cn(-c2ccccc2)nc1-c1ccccc1)Oc1ccc([N+](=O)[O-])cc1[N+](=O)[O-] : 1.0

isoTOP-ABPP reactivity ratio at lysine P61221_K191 reading for O=C(Oc1ccc([N+](=O)[O-])cc1[N+](=O)[O-])C(c1ccccc1)c1ccccc1 [fragment 30, 2,4-Dinitrophenyl 2,2-diphenylacetate] : 1.1

isoTOP-ABPP reactivity ratio at lysine P61221_K191 reading for O=C(CCc1coc2cc(F)ccc2c1=O)Oc1c(F)c(F)c(F)c(F)c1F : 1.4

====

Task for the reader: assign each of the following molecules its reported isoTOP-ABPP reactivity ratio at lysine P52292_K459.
- TGT: KPNA2 Importin subunit alpha-2 (Homo sapiens)
- Construct: isoTOP-ABPP experiments performed in cell lysates (in vitro); endogenous in cells; host or cells: soluble proteome of human cancer cell lines (MDA-MB-231, Ramos, Jurkat)
- TEST_METHOD_NOTES: competitive isoTOP-ABPP
- Assay type: binding
- RUN_PARAMETERS: 50 uM, 231 sol, in vitro
Answer with a bare number; do not write a unit.

isoTOP-ABPP reactivity ratio at lysine P52292_K459 reading for Cn1cc(CC(=O)Oc2ccc([N+](=O)[O-])cc2[N+](=O)[O-])c2ccccc21 : 1.8

isoTOP-ABPP reactivity ratio at lysine P52292_K459 reading for O=C(CN1C(=O)c2ccccc2C1=O)Oc1c(F)c(F)c(F)c(F)c1F : 1.3

isoTOP-ABPP reactivity ratio at lysine P52292_K459 reading for O=C(CCc1cn(-c2ccccc2)nc1-c1ccccc1)Oc1ccc([N+](=O)[O-])cc1[N+](=O)[O-] : 2.0

isoTOP-ABPP reactivity ratio at lysine P52292_K459 reading for COc1cc(CCC(=O)Oc2ccc([N+](=O)[O-])cc2[N+](=O)[O-])cc(OC)c1OC : 1.8
